target: EGFR (human); settings: a431
observed property: IC50 (µg/mL)

INSERT INTO assay_data (compound_smiles, output_unit, measured_value) VALUES
  ('COc1cc2ncc(C#N)c(Nc3ccc(Sc4nc5ccccc5c(=O)[nH]4)c(Cl)c3)c2cc1NC(=O)/C=C/CN(C)C', 'µg/mL', 0.34),
  ('CCOc1cc2ncc(C#N)c(Nc3ccc4c(c3)S(=O)(=O)C=C4)c2cc1OCC', 'µg/mL', 0.257),
  ('C=CC(=O)Nc1ccc2ncc(C#N)c(Nc3ccc(Sc4nccn4C)c(Cl)c3)c2c1', 'µg/mL', 0.62),
  ('CCOc1cc2ncc(C#N)c(Nc3cc(Cl)c(Nc4nncs4)c(C(F)(F)F)c3)c2cc1NC(=O)/C=C/CN(C)C', 'µg/mL', 0.728),
  ('COc1cc2ncc(C#N)c(Nc3ccc(Sc4nc(-c5ccccc5)cs4)c(Cl)c3)c2cc1NC(=O)/C=C/CN(C)C', 'µg/mL', 0.162);

I. COc1cc2ncc(C#N)c(Nc3ccc(Sc4nc5ccccc5c(=O)[nH]4)c(Cl)c3)c2cc1N
II. COc1cc2ncc(C#N)c(Nc3ccc(-n4ccnc4)c(Cl)c3)c2cc1[N+](=O)[O-]
III. COc1cc2ncc(C#N)c(Nc3ccc(-n4ccnc4)c(Cl)c3)c2cc1NC(=O)/C=C/CN(C)C
Incoming: Number of compounds to sort: 3. Sort criterion: IC50, ascending. # answer = labels listed in requested order
Outgoing: III, I, II

----------
target: EGFR (human) (UniProt P00533); settings: a431
Sequence (P00533 whole entry, looked up): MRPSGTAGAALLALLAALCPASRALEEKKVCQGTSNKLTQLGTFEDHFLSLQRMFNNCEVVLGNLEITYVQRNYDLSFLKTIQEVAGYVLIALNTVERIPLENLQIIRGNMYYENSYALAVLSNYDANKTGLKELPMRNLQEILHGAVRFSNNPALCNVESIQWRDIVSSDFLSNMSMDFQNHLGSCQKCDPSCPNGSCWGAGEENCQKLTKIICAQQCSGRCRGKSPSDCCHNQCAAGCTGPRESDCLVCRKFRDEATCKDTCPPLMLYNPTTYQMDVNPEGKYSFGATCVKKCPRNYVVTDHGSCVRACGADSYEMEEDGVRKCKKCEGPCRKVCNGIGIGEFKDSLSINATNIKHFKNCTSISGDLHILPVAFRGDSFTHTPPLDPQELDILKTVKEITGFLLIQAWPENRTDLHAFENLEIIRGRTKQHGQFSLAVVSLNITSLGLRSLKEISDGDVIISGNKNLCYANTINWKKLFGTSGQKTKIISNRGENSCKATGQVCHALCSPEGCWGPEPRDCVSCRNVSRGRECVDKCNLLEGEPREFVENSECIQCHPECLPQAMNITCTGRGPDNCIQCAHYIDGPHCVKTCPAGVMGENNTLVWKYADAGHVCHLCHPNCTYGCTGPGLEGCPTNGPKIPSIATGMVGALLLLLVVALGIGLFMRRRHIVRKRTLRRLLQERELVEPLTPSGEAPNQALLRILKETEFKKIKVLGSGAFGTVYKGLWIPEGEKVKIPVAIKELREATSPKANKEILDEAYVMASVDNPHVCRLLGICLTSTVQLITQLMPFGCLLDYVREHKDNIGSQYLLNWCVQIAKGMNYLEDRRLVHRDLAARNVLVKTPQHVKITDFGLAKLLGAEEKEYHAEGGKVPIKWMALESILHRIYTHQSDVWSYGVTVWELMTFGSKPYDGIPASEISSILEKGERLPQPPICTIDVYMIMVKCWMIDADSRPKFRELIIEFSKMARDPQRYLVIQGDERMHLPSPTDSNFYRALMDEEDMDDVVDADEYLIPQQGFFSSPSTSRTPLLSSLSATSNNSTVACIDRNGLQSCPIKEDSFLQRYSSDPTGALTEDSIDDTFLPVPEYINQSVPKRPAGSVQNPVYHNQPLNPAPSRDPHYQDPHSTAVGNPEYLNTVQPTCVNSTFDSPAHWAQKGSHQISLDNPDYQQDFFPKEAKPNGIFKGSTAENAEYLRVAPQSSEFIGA
observed property: IC50 (µg/mL)

INSERT INTO assay_data (compound_smiles, output_unit, measured_value) VALUES
  ('CCOc1cc2ncc(C#N)c(Nc3ccc(Sc4nc(-c5ccccc5)cs4)c(C(F)(F)F)c3)c2cc1[N+](=O)[O-]', 'µg/mL', 0.76),
  ('CCOc1cc2ncc(C#N)c(Nc3ccc(Cn4ccnc4)c(Cl)c3)c2cc1NC(=O)/C=C/CN(C)C', 'µg/mL', 0.95),
  ('CCOc1cc2ncc(C#N)c(Nc3ccc(Sc4nc(C)cc(C)n4)c(Cl)c3)c2cc1N', 'µg/mL', 0.76);

P. COc1cc2c(Nc3ccc(Sc4nccn4C)c(Cl)c3)c(C#N)cnc2cc1OCCCN1CCOCC1
Q. CCOc1cc2ncc(C#N)c(Nc3ccc(Sc4nccc(C)n4)c(Cl)c3)c2cc1[N+](=O)[O-]
R. COc1cc2ncc(C#N)c(Nc3ccc(Sc4nccs4)c(Cl)c3)c2cc1NC(=O)/C=C/CN(C)C
Incoming: Number of molecules to sort: 3. Sort criterion: IC50, ascending. # answer = labels listed in requested order
Outgoing: R, P, Q
(R: 0.017 µg/mL, P: 0.775 µg/mL, Q: 1.2 µg/mL)
